- Measured on: MERTK (UniProt Q12866)
- Sequence (Q12866 whole entry, looked up): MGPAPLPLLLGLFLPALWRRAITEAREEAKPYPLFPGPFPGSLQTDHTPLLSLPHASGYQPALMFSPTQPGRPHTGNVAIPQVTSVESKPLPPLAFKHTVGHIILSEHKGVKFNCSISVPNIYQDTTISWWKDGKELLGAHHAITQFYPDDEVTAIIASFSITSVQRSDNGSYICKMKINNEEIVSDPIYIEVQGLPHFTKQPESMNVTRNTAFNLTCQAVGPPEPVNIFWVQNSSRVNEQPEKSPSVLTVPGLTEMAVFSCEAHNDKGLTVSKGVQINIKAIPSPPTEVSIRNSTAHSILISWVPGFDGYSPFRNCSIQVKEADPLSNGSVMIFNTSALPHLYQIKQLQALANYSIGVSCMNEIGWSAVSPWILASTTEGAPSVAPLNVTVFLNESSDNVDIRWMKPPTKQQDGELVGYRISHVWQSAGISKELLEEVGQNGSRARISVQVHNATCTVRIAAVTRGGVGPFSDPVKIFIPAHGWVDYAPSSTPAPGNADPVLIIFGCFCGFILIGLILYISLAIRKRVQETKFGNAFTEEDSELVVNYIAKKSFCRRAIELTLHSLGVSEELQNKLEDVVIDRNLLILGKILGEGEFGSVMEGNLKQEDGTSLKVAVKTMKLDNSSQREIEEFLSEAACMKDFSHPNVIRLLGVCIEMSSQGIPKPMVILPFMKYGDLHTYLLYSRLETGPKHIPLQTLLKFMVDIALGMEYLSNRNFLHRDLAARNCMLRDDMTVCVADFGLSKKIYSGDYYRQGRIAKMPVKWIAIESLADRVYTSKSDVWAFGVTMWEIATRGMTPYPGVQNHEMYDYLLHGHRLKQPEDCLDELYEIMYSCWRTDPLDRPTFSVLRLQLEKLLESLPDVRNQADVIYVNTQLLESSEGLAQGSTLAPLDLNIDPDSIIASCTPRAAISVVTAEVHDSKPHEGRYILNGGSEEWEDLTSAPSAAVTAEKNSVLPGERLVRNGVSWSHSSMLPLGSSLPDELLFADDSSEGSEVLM
- Assay details: phosphorylation enrichment, bacterial display (enrichment ratio); higher = better substrate or ligand; peptides without Tyr show the background;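 further: 11-residue human phosphosite peptides and single-mutation variants displayed on the E. coli surface, counted by deep sequencing, each peptide's frequency after selection divided by its frequency in the unselected input library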;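 further: frequency after pTyr selection over input frequency; kinase dosed for 20-30% of maximal phosphorylation in three min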
Quantity measured: phosphorylation enrichment

> print(dat)
                      sequence.record  quantitative.readout
 1      GLSAPYVKIHL [SYT2_Y309_D307A]                  0.43
 2           PATINYPFEKG [NDUFS8_Y84]                 0.556
 3    MAFDRYVAICA [OR52J3_Y125_V128I]                 0.386
 4        KSVEEYANCHL [TF_Y593_P589S]                 0.521
 5         HAVFVYDICHV [TWNK_Y508_YF]                  2.62
 6    GSERRYTREGG [PTPRN2_Y139_S140T]                 0.382
 7  ALVFLSFCIIF [SIGLEC12_Y494_Y494S]                 0.449
 8       RRERLYGGGGG [FUS_Y526_P525L]                 0.561
 9  VNFDFYTVNLG [GFPT1_Y367_D366Y_YF]                  1.97
10      SMGHRYIEVFR [HNRNPF_Y82_K87R]                 0.474
11      NVQIVYKPVDL [MAPT_Y627_S622N]                 0.354
12        KIVQDYLEKFY [MMP8_Y36_T32I]                 0.483
13    DIDKIYIRTGI [PIK3CA_Y355_V356I]                 0.342
14           LLVVLYKYRCY [PSEN1_Y154]                 0.746

====

Listed here are sequences together with their documented phosphorylation enrichment.
- Measured on: EPHB2 (UniProt P29323)
- Sequence (P29323 whole entry, looked up): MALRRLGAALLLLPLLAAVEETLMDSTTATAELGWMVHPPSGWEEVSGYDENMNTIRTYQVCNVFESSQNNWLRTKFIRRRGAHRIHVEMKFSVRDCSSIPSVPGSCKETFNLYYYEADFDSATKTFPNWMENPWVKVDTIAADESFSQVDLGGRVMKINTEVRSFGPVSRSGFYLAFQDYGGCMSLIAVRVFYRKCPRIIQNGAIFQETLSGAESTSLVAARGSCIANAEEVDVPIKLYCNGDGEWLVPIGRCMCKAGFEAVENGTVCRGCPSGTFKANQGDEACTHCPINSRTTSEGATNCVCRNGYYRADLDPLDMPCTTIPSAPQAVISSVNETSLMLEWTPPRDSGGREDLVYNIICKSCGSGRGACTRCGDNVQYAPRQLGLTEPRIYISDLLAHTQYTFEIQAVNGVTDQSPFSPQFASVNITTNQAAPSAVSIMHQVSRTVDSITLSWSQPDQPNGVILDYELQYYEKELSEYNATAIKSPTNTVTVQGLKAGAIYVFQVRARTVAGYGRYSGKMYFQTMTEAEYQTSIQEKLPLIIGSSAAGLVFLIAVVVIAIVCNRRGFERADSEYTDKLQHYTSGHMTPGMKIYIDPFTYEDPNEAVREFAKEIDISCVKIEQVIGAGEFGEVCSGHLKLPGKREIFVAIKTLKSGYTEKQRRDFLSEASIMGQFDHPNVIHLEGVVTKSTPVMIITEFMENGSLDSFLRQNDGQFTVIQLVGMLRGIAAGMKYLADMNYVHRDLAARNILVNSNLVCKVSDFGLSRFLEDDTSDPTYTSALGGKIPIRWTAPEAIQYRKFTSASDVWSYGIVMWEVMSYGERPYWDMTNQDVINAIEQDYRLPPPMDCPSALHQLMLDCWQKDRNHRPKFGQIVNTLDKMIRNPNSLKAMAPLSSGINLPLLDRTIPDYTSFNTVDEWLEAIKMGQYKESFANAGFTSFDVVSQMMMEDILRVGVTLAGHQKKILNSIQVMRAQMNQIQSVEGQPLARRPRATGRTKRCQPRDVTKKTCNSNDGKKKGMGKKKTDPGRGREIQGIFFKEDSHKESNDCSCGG
- Assay details: phosphorylation enrichment, bacterial display (enrichment ratio); higher = better substrate or ligand; peptides without Tyr show the background
Quantity measured: phosphorylation enrichment

> print(dat)
                      sequence.record           quantity.measured  result
 1   SLTGAYASGIP [POM121C_Y378_T379A]  phosphorylation enrichment    0.43
 2  ASNFNYFFHRE [KCNA1_Y413_V408A_YF]  phosphorylation enrichment   0.556
 3     RFLRGYHQDAY [HLA-A_Y137_R138H]  phosphorylation enrichment    1.03
 4         GGYNNYGYGND [HNRNPH3_Y159]  phosphorylation enrichment    3.79
 5    GSERRYTREGG [PTPRN2_Y139_S140T]  phosphorylation enrichment   0.347
 6   KKKKQYKGKFL [CASK_Y708_D710G_YF]  phosphorylation enrichment   0.549
 7       GFSRHYEDGFP [CTNND1_Y217_YF]  phosphorylation enrichment   0.451
 8      SGVVPYEPPEV [TP53_Y220_V216G]  phosphorylation enrichment   0.738
 9      GYYDLYGGEKF [PTPN11_Y66_D61G]  phosphorylation enrichment    9.35
10           QDTSRYTVSNL [BIRC3_Y245]  phosphorylation enrichment   0.467
11  LGGAMYFLEAD [PKHD1_Y452_E457D_YF]  phosphorylation enrichment   0.701
12           PATINYPFEKG [NDUFS8_Y84]  phosphorylation enrichment   0.218
13     IHETTHNSIMK [ACTA1_Y281_Y281H]  phosphorylation enrichment   0.349
14     SHTPSYCDEWL [RITA1_Y109_S113W]  phosphorylation enrichment   0.558
15      PLYGEYFTLQI [TP53_Y327_D324Y]  phosphorylation enrichment    18.6
16        KSVEEYANCHL [TF_Y593_P589S]  phosphorylation enrichment   0.429
17                        SNKELYEKYMI  phosphorylation enrichment    0.62
18       LAIELYVVVCK [RHO_Y136_R135L]  phosphorylation enrichment    2.06
19   QDRTFYERVRT [SPEN_Y633_S635R_YF]  phosphorylation enrichment    0.42
20      SGGSSYGSGGC [KRT1_Y532_G537C]  phosphorylation enrichment   0.596
21   IITDFYVDMKF [MPP4_Y567_V562I_YF]  phosphorylation enrichment    1.08
22      PNLILYGDFRQ [MYH7_Y715_R712L]  phosphorylation enrichment   0.602
23      HEVHIYENSGA [ARPC1B_Y35_K37N]  phosphorylation enrichment    1.28
24    MHDSNCVSKGS [PDGFRA_Y849_Y849C]  phosphorylation enrichment   0.367
25      AEEKEYHAEEG [EGFR_Y869_G873E]  phosphorylation enrichment   0.815
26       LDLSYYHTSSS [EMD_Y182_P183H]  phosphorylation enrichment   0.614
27      PPSELYFVKVD [TERT_Y707_P704S]  phosphorylation enrichment   0.965
28            TGVRDYIHVVD [GALE_Y241]  phosphorylation enrichment   0.531
29           KAALSYVSEIG [BPIFB2_Y36]  phosphorylation enrichment   0.385
